# Target Entity: HIV-1 Env of isolate MGRM-D-026 (subtype D) (HIV-1)
# Procedure Summary: cell-based or functional assay
Observable: IC50 (neutralization)

Binder | Reported Value
PGT-126 (antibody, V domains shown) VH: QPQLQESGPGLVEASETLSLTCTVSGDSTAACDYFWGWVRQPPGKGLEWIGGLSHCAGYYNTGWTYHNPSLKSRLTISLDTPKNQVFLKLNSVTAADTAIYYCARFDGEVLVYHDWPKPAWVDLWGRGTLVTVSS VL: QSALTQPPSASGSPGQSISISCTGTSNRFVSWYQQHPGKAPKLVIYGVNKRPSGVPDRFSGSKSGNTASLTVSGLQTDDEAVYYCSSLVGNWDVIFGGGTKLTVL | > 50 µg/mL
PGT-135 (antibody, V domains shown) VH: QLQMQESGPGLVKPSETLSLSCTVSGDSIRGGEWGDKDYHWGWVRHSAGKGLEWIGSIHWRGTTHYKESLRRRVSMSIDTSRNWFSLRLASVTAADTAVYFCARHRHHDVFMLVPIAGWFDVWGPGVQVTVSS VL: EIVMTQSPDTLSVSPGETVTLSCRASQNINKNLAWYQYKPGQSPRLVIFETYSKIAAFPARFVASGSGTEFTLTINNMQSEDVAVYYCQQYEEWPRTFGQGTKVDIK | > 50 µg/mL
PGT-125 (antibody, V domains shown) VH: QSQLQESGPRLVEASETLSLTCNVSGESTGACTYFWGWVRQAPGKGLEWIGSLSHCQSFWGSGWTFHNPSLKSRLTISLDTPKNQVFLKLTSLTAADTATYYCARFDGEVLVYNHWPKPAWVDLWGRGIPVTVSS VL: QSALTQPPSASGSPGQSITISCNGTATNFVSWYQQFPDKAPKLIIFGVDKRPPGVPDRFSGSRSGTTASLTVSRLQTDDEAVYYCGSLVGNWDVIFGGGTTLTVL | > 50 µg/mL

Origin of values: patent US20160264649A1
